Test system: rats
test: Intracerebral compatibility according to Valzelli
Type: in vivo
measurement.conditions: methylglucamine salts, 200 mg. I/ml., dose evoking neurological symptoms (including convulsions and death) in 50% of animals, (1) = Iotalamat (H), (2) = compound
Exam item: assign Y to entries whose ED50 intracerebral compatibility according to Valzelli (myelography) is below 70 mg. I/kg. and N to entries at or above 70 mg. I/kg.. Note that a value of exactly 70 mg. I/kg. receives N.

// below: answered compounds
| compound | assigned.class |
| --- | --- |
| CNC(=O)c1c(I)c(NC(C)=O)c(I)c(C(=O)N(C)CC(=O)O)c1I [D] | N |
| CNC(=O)CNC(=O)c1c(I)c(NC(=O)COC)c(I)c(C(=O)O)c1I [C] | Y |

Exercise: Would you kindly verify if ED50 intracerebral compatibility according to Valzelli (myelography) of CNC(=O)C(C)NC(=O)c1c(I)c(NC(C)=O)c(I)c(C(=O)O)c1I (racemic) [B] is strictly less than 70 mg. I/kg.?
Key: Y

Exercise: Hello, I'm reviewing records and need to know if ED50 intracerebral compatibility according to Valzelli (myelography) of CNC(=O)C(CO)NC(=O)c1c(I)c(NC(=O)COC)c(I)c(C(=O)O)c1I (racemic) [F] is below 70 mg. I/kg.. Could you check?
Key: N

Exercise: Say whether its ED50 intracerebral compatibility according to Valzelli (myelography) is strictly beneath 70 mg. I/kg.. Entry: CNC(=O)CNC(=O)c1c(I)c(NC(=O)CO)c(I)c(C(=O)O)c1I [G]
Key: Y
